Source of measurements: patent US6699887B2

tested on: HXB2-strain of HIV; experiment: Antiviral assay: protection of HIV-infected MT4 cells from cell death (MTT); assay type: cell-based; settings: Human immunodeficiency virus 1, 120 h; MT4 cells infected with HXB2-strain of HIV, 5 days, MTT viability
Collected pIC50 values appear next to each entry.
Please express pIC50 as -log10 of the molar concentration.

GET /value?item= `Cc1nn(C(C)C)c(Sc2cc(Cl)cc(Cl)c2)c1Cc1ccncc1` &field=pIC50 returns 8.57

GET /value?item= `Cc1nn(C(C)C)c(Sc2cc(Cl)cc(Cl)c2)c1Cc1cccnc1` &field=pIC50 returns 7.84

GET /value?item= `Cc1nn(C(C)C)c(Sc2cc(Cl)cc(Cl)c2)c1Cc1ccccc1` &field=pIC50 returns 7.62

GET /value?item= `Cc1nn(C(C)C)c(Sc2cc(Cl)cc(Cl)c2)c1CSc1ccncc1` &field=pIC50 returns 7.47

GET /value?item= `Cc1nn(C(C)C)c(Sc2cc(Cl)cc(Cl)c2)c1Cc1ccc(C#N)cc1` &field=pIC50 returns 7.92

GET /value?item= `Cc1nn(C(C)C)c(Sc2cc(Cl)cc(Cl)c2)c1COc1cccnc1` &field=pIC50 returns 6.96

GET /value?item= `Cc1nn(C(C)C)c(Sc2cc(Cl)cc(Cl)c2)c1Cc1ccccn1` &field=pIC50 returns 7.12

GET /value?item= `Cc1nn(C(C)C)c(Sc2cc(Cl)cc(Cl)c2)c1Cc1ccncc1Cl` &field=pIC50 returns 7.29

GET /value?item= `CCn1nc(COC)c(Cc2ccccc2)c1Sc1cc(Cl)cc(Cl)c1` &field=pIC50 returns 6.34

GET /value?item= `Cc1nn(C(C)C)c(Sc2cc(Cl)cc(Cl)c2)c1COCc1ccccc1` &field=pIC50 returns 7.00

GET /value?item= `Cc1nn(C(C)C)c(Sc2cc(Cl)cc(Cl)c2)c1Cc1ccnc(Cl)c1` &field=pIC50 returns 7.82

GET /value?item= `Cc1nn(C(C)C)c(Sc2cc(Cl)cc(Cl)c2)c1COc1ccncc1` &field=pIC50 returns 7.70

GET /value?item= `Cc1cc(C)cc(Sc2c(Cc3ccccn3)c(C)nn2C(C)C)c1` &field=pIC50 returns 7.19

GET /value?item= `Cc1nn(C(C)C)c(Sc2cc(Cl)cc(Cl)c2)c1Cc1cnccn1` &field=pIC50 returns 7.86

GET /value?item= `Cc1nn(C(C)C)c(Sc2cc(Cl)cc(Cl)c2)c1COCc1ccncc1` &field=pIC50 returns 8.44

GET /value?item= `Cc1cc(C)cc(Sc2c(Cc3ccncc3F)c(C)nn2C(C)C)c1` &field=pIC50 returns 8.09

====

Biological target: HIV-1 RT (Human immunodeficiency virus type 1 group M subtype B, UniProt P04585)
Assay: HIV-1 Reverse Transcriptase Assay: Inhibitor IC50 Determination
Conditions: purified recombinant enzyme, poly(rA)/oligo(dT)16 template-primer, 37° C. 30 min
Description: Assay Method: HIV-1 Reverse Transcriptase Assay: Inhibitor IC50 Determination: HIV-1 RT assay was carried out in 96-well Millipore filtermat NOB50 plates using purified recombinant enzyme and a poly(rA)/oligo(dT)16 template-primer in a total volume of 50 μL. […] Finally the plates were dried and radioactivity counted in a Wallac Microbeta 1450 after the addition of 15 μl scintillation fluid per well. IC50's were calculated by plotting % inhibition versus log10 inhibitor concentrations.
# if measured IC50 < 300 nM: Criterion met  # else: Criterion not met

Please review the following examples before continuing.
INSERT INTO results (smiles, system, class_assignment) VALUES
  ('Cc1cc(C)cc(Sc2c(Cc3ccncc3Cl)c(C)nn2C(C)C)c1', 'HIV-1 RT (Human immunodeficiency virus type 1 group M subtype B, UniProt P04585)', 'Criterion not met'),
  ('Cc1nn(C(C)C)c(Sc2cccc(Br)c2)c1Cc1ccncc1F', 'HIV-1 RT (Human immunodeficiency virus type 1 group M subtype B, UniProt P04585)', 'Criterion not met'),
  ('Cc1nn(C(C)C)c(Sc2cc(Cl)cc(Cl)c2)c1Cc1cnccn1', 'HIV-1 RT (Human immunodeficiency virus type 1 group M subtype B, UniProt P04585)', 'Criterion met');

As a next step, examine the molecule that follows.
Q: For `Cc1nn(C(C)C)c(Sc2cc(Cl)cc(Cl)c2)c1COc1cccnc1` , is the recorded IC50 below the cut-off of 300 nM?
Ans: Criterion not met
